binding signal values, listed per item
- target_system: T1, UNK ZnF1-3 (human, UniProt Q9C0B0 31-174)
- T1 sequence: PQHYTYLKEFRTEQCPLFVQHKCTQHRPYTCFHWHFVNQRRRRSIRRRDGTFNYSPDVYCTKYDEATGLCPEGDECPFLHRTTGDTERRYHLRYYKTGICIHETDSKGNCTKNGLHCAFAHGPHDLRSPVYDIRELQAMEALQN
- test_method_notes: nsRBNS (natural sequence RNA bind-n-seq); RBNS binding buffer (assumed for nsRBNS): 25 mM Tris pH 7.5, 150 mM KCl, 3 mM MgCl2, 0.01% Triton X-100, 500 ug/ml BSA, 20 U/ml SUPERase-In, 4 C; UNK is unkempt and MSI1 is Musashi-1; names of the RNAs are library labels; protein concentration not given here; high values mean tight binding
The full ranking holds about 24,000 sequences; the median of “enrichment r” is about 0.99, and the highest 2% start at about 3.7. This excerpt belongs to a sample that is enriched for the highest values.

- binder: "chr5:10264850:10264851:+_ENSG00000150753_ENST00000503026|hu_hu|FALSE|FALSE (ssRNA) RNA: GGGAGUUCUACAGUCCGACGAUCUUCUCAAUGUCUUCAUUCUUCAGAUUCUCCAGGCUUACGAAUGUCAUCAAUCUUCAAAAUCAUUCUAACCAUUUGUGUUGCAAGAGAUAUCUGUUGCUUUUUGCCAAUCAAGGUUUCUAUCAACAGAGGAUUGAGCAUCA"
  result_units: "enrichment R"
  binding signal: 0.579
- binder: "134340332_134340452_1702_CDS_ENSG00000130723_ENST00000357304|human|control|control (ssRNA) RNA: GGGAGUUCUACAGUCCGACGAUCAGGGCCGUUUUCCUGGGGAGAUGCCUUCUCAGCACUUGGAGACCAGGGCACUUCCUUCUCUGCCUGCUUCCGGGCCUCACCUGCCUUUCGUGCCUGCUUACACUUCUGGUCCAGCUGCUUCAACAGAGGAUUGAGCAUCA"
  result_units: "enrichment R"
  binding signal: 0.675
- binder: "chr7:108137184:108137185:-_ENSG00000135241_ENST00000257694|hu_mus|motif|central (ssRNA) RNA: GGGAGUUCUACAGUCCGACGAUCUCGAUAGAGUUCCUCACAUUCAUCCAGCGGCAUGUGAAACAAUCCCAGCAUAAAUGCGGAUAUGGCCCCUGUGCUUACUCCACAGAUGUAAUCAAAAAGCUGAUGAAUCGGCUUCUGAGUCAACAGAGGAUUGAGCAUCA"
  result_units: "enrichment R"
  binding signal: 1.13
- binder: "chr2:91446484:91446485:+_ENSMUSG00000040549_ENSMUST00000099716|mus_hu|motif|central (ssRNA) RNA: GGGAGUUCUACAGUCCGACGAUCCAAUUUCUCAUCUGCCAUGUGUGUGUUGUAGAUGAGUCUUAGCUGCAUAAAAGUGGCGGUCAGAAACUGAUCAAUAUGGCCGGACAUGGCUUCAGCUUUGUCUUCCUGUCUCAGGACCUCCAACAGAGGAUUGAGCAUCA"
  result_units: "enrichment R"
  binding signal: 0.637
- binder: "chr1:6284582:6284583:-_ENSG00000116237_ENST00000343813|hu_hu|FALSE|FALSE (ssRNA) RNA: GGGAGUUCUACAGUCCGACGAUCAGCUAGGAAUACCCCUUUGAAUGUGUACUGCUACUUAUAAAAAAUAGGUAUGUAGCUAUGAUUAAAUAGAUGAAGGGCCAAAGCAUCCUAUGAGGAAGUAUUUUUAAAAUUGUAUAGAUGCAACAGAGGAUUGAGCAUCA"
  result_units: "enrichment R"
  binding signal: 6.19
- binder: "chr12:1897663:1897664:+_ENSG00000006831_ENST00000357103|hu_mus|motif|central (ssRNA) RNA: GGGAGUUCUACAGUCCGACGAUCGCUUUGUGAUUUCAGCAACUUAUAGAGGGGAGAGAGGAAAUACUGAAAAAGGCCACGGUUUAAUGAUGAGAGAGUGAAGGUGUACAGGUUCCUAACCAGCCUAGGGCCAAAAAAGGAGACCAACAGAGGAUUGAGCAUCA"
  result_units: "enrichment R"
  binding signal: 3.48
- binder: "chr5:37680062:37680063:+_ENSMUSG00000029121_ENSMUST00000031004|mus_hu|mus_mus_mus_hu_False|1_18 (ssRNA) RNA: GGGAGUUCUACAGUCCGACGAUCUUUGGGUGUAGCUGGUACCUCGUACACAGGACCGUCAUACAUGCCCCUGGAAACCCCUUGCAAUCCAAAAACCUUAUUCCUGAUUUUGACGCGCUGGUAGAGAUGCUCCGGGAAUGGCUUCAACAGAGGAUUGAGCAUCA"
  result_units: "enrichment R"
  binding signal: 0.867

Cited source for all entries: paper PMC12136788
